- assayed-target: UniProtKB P00734
- assay-method-text: Compound was evaluated for the kinetic parameter Ki/KI(1/M.1/S) by its ability to inhibit human thrombin
reported-endpoint: Ki/KI (M⁻¹ s⁻¹)

- record-smiles: "O=C(Oc1cncc(Cl)c1)c1cc2cc(CCl)ccc2oc1=O"
  assayed-target: "UniProtKB P00734"
  test-value: 200
- record-smiles: "O=C(Oc1ccccc1)c1cc2cc(CCl)ccc2oc1=O"
  assayed-target: "UniProtKB P00734"
  test-value: 200

P: Cc1ccnc(OC(=O)c2cc3cc(CCl)ccc3oc2=O)c1
Q: O=C(Oc1cccc(Cl)n1)c1cc2cc(CCl)ccc2oc1=O
R: O=C(Oc1ccccn1)c1cc2cc(CCl)ccc2oc1=O
(Q) Put these in order: smallest Ki/KI first, largest last. Please list the labels in the order you were asked to rank them.
(A) R, P, Q
